# Tested on: Prunus dulcis
# Experimental protocol: Inhibition of almond beta-glucosidase at 1 mM using p-nitrophenyl glycopyranoside preincubated for 5 mins followed by substrate addition measured after 20 mins by visible absorption spectroscopic method relative to control
Active and inactive are the calls of the source. The calls are words filed in the database; no cut-off is given here.
Quantity name: inhibition

>>> print(df.to_string())
                                given_smiles   study_system  quantity_name  measured_value
 0  COc1ccc2cc(-c3cn(C[C@H]4NC[C@@H](O)[C@H]4O)nn3)ccc2c1  Prunus dulcis     inhibition           < 50%
 1  O[C@@H]1[C@@H](c2cn(Cc3ccccc3)nn2)NC[C@@H]1O  Prunus dulcis     inhibition        inactive
 2  O[C@@H]1[C@H](O)CN[C@@H]1Cn1cc(-c2ccccc2)nn1  Prunus dulcis     inhibition           < 53%
 3  O[C@@H]1[C@H](O)CN[C@H]1Cn1cc(-c2ccccc2)nn1  Prunus dulcis     inhibition             97%
 4  O[C@H]1[C@@H](O)CN[C@@H]1Cn1cc(-c2ccccc2)nn1  Prunus dulcis     inhibition             49%
 5      [N-]=[N+]=NC[C@H]1NC[C@@H](O)[C@H]1O  Prunus dulcis     inhibition             89%
 6  O[C@@H]1[C@H](O)CN[C@H]1CNC(=S)Nc1ccccc1  Prunus dulcis     inhibition             74%
 7  O[C@@H]1[C@H](O)CN[C@@H]1CCn1cc(-c2ccccc2)nn1  Prunus dulcis     inhibition             96%
 8  O[C@@H]1[C@H](O)CN[C@H]1c1cn(Cc2ccccc2)nn1  Prunus dulcis     inhibition        inactive
 9     [N-]=[N+]=NC[C@@H]1NC[C@@H](O)[C@H]1O  Prunus dulcis     inhibition        inactive
10  OCc1ccc(-c2cn(C[C@H]3NC[C@@H](O)[C@H]3O)nn2)cc1  Prunus dulcis     inhibition           < 50%
11  COc1ccc(-c2cn(C[C@H]3NC[C@@H](O)[C@H]3O)nn2)cc1  Prunus dulcis     inhibition           < 50%
12  O[C@@H]1[C@H](O)CN[C@@H]1c1cn(Cc2ccccc2)nn1  Prunus dulcis     inhibition        inactive
13  O=C(NC[C@@H]1NC[C@@H](O)[C@H]1O)c1ccccc1  Prunus dulcis     inhibition             79%
